Taken from patent US20060063932A1.

Target: human 5-HT7B (h5-HT7b) receptors (Homo sapiens)
Construct: expressed in transfected cells
Sequence (P34969 1-432 limits assumed): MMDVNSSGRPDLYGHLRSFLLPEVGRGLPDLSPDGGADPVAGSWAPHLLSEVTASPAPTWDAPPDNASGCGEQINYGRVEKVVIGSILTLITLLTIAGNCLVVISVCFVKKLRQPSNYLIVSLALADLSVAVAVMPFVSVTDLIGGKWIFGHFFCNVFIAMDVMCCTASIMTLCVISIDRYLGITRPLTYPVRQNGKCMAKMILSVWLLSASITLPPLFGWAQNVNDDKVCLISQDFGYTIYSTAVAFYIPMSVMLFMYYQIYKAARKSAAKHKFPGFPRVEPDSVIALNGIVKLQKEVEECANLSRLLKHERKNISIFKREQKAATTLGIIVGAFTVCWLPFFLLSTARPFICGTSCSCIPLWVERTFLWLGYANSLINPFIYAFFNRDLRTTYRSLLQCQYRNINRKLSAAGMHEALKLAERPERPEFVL
Experiment: Competition radioligand binding, h5-HT7b ([3H]5-CT)
Conditions: membranes of HEK 293 cells, 2 hr 37° C., read-out: Ki (nM) 5-HT7
REPORTED_ENDPOINT: log10(Ki) (log10 of the value in nM)
// units: nM (pre-log); metric: Ki; scale: log10

Task: Which value of log10(Ki) has been reported for CN1CCCC1CCN(Cc1ccccc1)Cc1ccc(C(C)(C)C)cc1 (stereo not drawn) in the records?
Result: 1.82

Task: Which value of log10(Ki) has been reported for `Cc1cc(CN(CC[C@@H]2CCCN2C)Cc2cccc(O)c2)cc(C)c1O` in the records?
Result: 1.23

Task: Which value of log10(Ki) has been reported for CN1CCCC1CCN(Cc1ccccc1)Cc1ccccc1 (racemic) in the records?
Result: 1.38

Task: Which value of log10(Ki) has been reported for `CN1CCC[C@H]1CCN(Cc1ccc(O)cc1)Cc1cccc(O)c1` in the records?
Result: 0.94

Task: Which value of log10(Ki) has been reported for `CN1CCC[C@H]1CCN(CCc1ccccc1)Cc1ccc(Cl)cc1` in the records?
Result: 2.30

Task: Which value of log10(Ki) has been reported for `CC(C)c1ccc(CN(CC[C@@H]2CCCN2C)Cc2ccc(Cl)cc2)cc1` in the records?
Result: 1.90

Task: Which value of log10(Ki) has been reported for CC(C)c1ccc(CN(CCC2CCCN2C)Cc2ccccc2)cc1 (stereo not drawn) in the records?
Result: 1.56

Task: Which value of log10(Ki) has been reported for Cc1ccc(C)c(CN(CCC2CCCN2C)Cc2ccccc2)c1 (stereo not drawn) in the records?
Result: 1.49

Task: Which value of log10(Ki) has been reported for CN1CCCC1CCN(Cc1cccc(O)c1)Cc1cccc(O)c1 (racemic) in the records?
Result: 1.69
